Assignment: determine reported IC50 for the given molecules.
system: OUMS-23; experiment: 72 hr cell titer Glo proliferation assay, OUMS-23; format: cell-based; conditions: single agent, OUMS-23 (PTEN loss), BRAFV600E

Would you be so kind as to report IC50 for each listed record?
1. C#Cc1cccc(Nc2ncnc3cc(OCCOC)c(OCCOC)cc23)c1 [Erlotinib, erlotinib, reference compound]
2. Cc1nc(NC(=O)N2CCC[C@H]2C(N)=O)sc1-c1ccnc(C(C)(C)C(F)(F)F)c1 [Compound B]

1: > 2700 nM; 2: > 2700 nM

Returns the measured IC50 for the input molecule. Input: COC(=O)N[C@@H](C)CNc1nccc(-c2cn(C(C)C)nc2-c2cc(Cl)cc(NS(C)(=O)=O)c2F)n1 [Compound A]
> 2700 nM
